system: MiaPaCa2 Pancreatic cancer; experiment: Growth inhibition test on MiaPaCa2 cells; format: cell-based, human; details: Table 1
readout-kind: IC50 (µg/mL)

• O=C1[O][Pt]2([NH][C@@H]3CCCC[C@H]3[NH]2)[O]C1=O = 5
• N.N.[Cl][Pt][Cl] [Cisplatin, cisplatin] = 1.5
• N.N.O=C([O-])C1(C(=O)[O-])CCC1.[Pt+2] = 5
• N.N.[Cl-].[Cl-].[OH-].[OH-].[Pt+4] [cis-Oxoplatin] = 5

###

tested on: CC1227 Colon carcinoma; assay: Growth inhibition test on CC1227 cells; format: cell-based, human; settings: Table 1
Below, each entry is listed with its recorded IC50.
readout-kind: IC50 (µg/mL)

• N.N.[Cl][Pt][Cl] [Cisplatin, cisplatin] = 0.3
• O=C1[O][Pt]2([NH][C@@H]3CCCC[C@H]3[NH]2)[O]C1=O = 0.2
• N.N.[Cl-].[Cl-].[OH-].[OH-].[Pt+4] [cis-Oxoplatin] = 10

###

system: M518 Melanoma; experiment: Growth inhibition test on M518 cells; assay type: cell-based, human; conditions: Table 1
readout-kind: IC50

- N.N.[Cl][Pt][Cl] [Cisplatin, cisplatin]: 40 µg/mL

###

System: Panc1 Pancreatic cancer
Assay: Growth inhibition test on Panc1 cells
Format: cell-based, human
Details: Table 1
Procedure: Growth inhibition tests on various human cell lines show the different activities of cisplatin, cis-oxoplatin and oxaliplatin. […] The following Table illustrates the results produced with cisplatin, oxoplatin, carboplatin and oxaliplatin (the values specified are IC50 values in μg/ml, i.e., the concentration where 50% of the cells survive, nd=not determined; res=resistant=non-sensitive or IC50 value cannot be determined at a concentration of up to 40 μg/ml; IC=inhibition concentration).
readout-kind: IC50 (µg/mL)

- N.N.O=C([O-])C1(C(=O)[O-])CCC1.[Pt+2]: 20
- O=C1[O][Pt]2([NH][C@@H]3CCCC[C@H]3[NH]2)[O]C1=O: 5
- N.N.[Cl-].[Cl-].[OH-].[OH-].[Pt+4] [cis-Oxoplatin]: 40
- N.N.[Cl][Pt][Cl] [Cisplatin, cisplatin]: 1
